- assaySystem: TNFα (Homo sapiens)
- assayOverview: TNF-Induced HEK-Blue Assay
- Assay type: cell-based
- appliedConditions: HEK-Blue-CD40L cells, NF-kB-driven secreted alkaline phosphatase reporter; TNFα 0.5 ng/ml; 18 h; read-out: TNF induced HEK-Blue assay IC50 value
pIC50: −log10 of the molar value. Starred links: 1 amine or outer side, 2 acyl side, 3 side chain; linkers in the order of their positions; H or OH if unused. Positions of bridges follow the written chain, without caps; N, C: chain ends. Non-standard residues stand in square brackets, D forms with d. Residues, ends and D or L forms follow the SMILES beside them. X5 = Cn1nc(C(=O)Nc2ccc(-c3ccc(C[C@H](N[*:1])C(=O)[*:2])cc3)cc2)c2ccccc21; Ala(morpholin-4-yl) = N[C@@H](CN1CCOCC1)C(=O)O; Bip = N[C@@H](Cc1ccc(-c2ccccc2)cc1)C(=O)O; 2Pal = N[C@@H](Cc1ccccn1)C(=O)O; Cha = N[C@@H](CC1CCCCC1)C(=O)O; Sar = CNCC(=O)O

[
  {
    "compound": "CC(C)C[C@@H]1NC(=O)[C@H](CCCNC(=N)N)NC(=O)[C@H](C(C)C)NC(=O)[C@@H]2CCCN2C(=O)[C@H](C(C)C)NC(=O)[C@@H](CCCNC(=N)N)NC(=O)[C@H](CC(=O)O)NC(=O)[C@H](Cc2cnc[nH]2)NC(=O)CN(C)C(=O)[C@H](Cc2ccc(-c3ccccc3)cc2)NC(=O)[C@H](Cc2ccc(-c3ccccc3)cc2)NC(=O)[C@H](CN2CCOCC2)NC(=O)CSC[C@@H](C(=O)NCC(N)=O)NC1=O [Example 229] ({CH2CO}-[Ala(morpholin-4-yl)][Bip][Bip][Sar]HD[dR]VPVRLCG-NH2; thioether N-13)",
    "pIC50": "6.70 to 7.30"
  },
  {
    "compound": "CC(C)C[C@@H]1NC(=O)[C@H](CCCNC(=N)N)NC(=O)[C@H](C(C)C)NC(=O)[C@@H]2CCCN2C(=O)[C@H](C(C)C)NC(=O)[C@@H](CCCNC(=N)N)NC(=O)[C@H](CC(=O)O)NC(=O)[C@H](Cc2ccccn2)NC(=O)CN(C)C(=O)[C@H](Cc2ccc(-c3ccccc3)cc2)NC(=O)[C@H](Cc2ccc(-c3ccccc3)cc2)NC(=O)[C@H](CN2CCOCC2)NC(=O)CSC[C@@H](C(=O)NCC(N)=O)NC1=O [Example 205] ({CH2CO}-[Ala(morpholin-4-yl)][Bip][Bip][Sar][2Pal]D[dR]VPVRLCG-NH2; thioether N-13)",
    "pIC50": "6.70 to 7.30"
  },
  {
    "compound": "CC[C@H](C)[C@@H]1NC(=O)[C@@H](CCCNC(=N)N)NC(=O)[C@H](CC(=O)O)NC(=O)[C@H](Cc2cnc[nH]2)NC(=O)CN(C)C(=O)[C@H](Cc2ccc(-c3ccc(NC(=O)c4nn(C)c5ccccc45)cc3)cc2)NC(=O)[C@H](Cc2ccc(-c3ccccc3)cc2)NC(=O)[C@H](CC2CCCCC2)NC(=O)CSC[C@@H](C(=O)NCC(N)=O)NC(=O)[C@H](CC(C)C)NC(=O)[C@H](Cc2cnc[nH]2)NC(=O)[C@H](C(C)C)NC(=O)[C@@H]2CCCN2C1=O [Example 341] ({CH2CO}-[Cha][Bip][X5][Sar]HD[dR]IPVHLCG-NH2; thioether N-13)",
    "pIC50": "> 7.30"
  }
]

----------
- assaySystem: TNFα (Homo sapiens, UniProt P01375)
- Sequence (P01375 77-233 limits assumed): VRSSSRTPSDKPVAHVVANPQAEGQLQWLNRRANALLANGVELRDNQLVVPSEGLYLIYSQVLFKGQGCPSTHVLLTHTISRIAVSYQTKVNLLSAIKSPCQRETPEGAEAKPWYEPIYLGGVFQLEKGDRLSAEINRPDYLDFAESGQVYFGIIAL
- assayOverview: TNF-Induced HEK-Blue Assay
- Format: cell-based
- appliedConditions: HEK-Blue-CD40L cells, NF-kB-driven secreted alkaline phosphatase reporter; TNFα 0.5 ng/ml; 18 h; read-out: TNF induced HEK-Blue assay IC50 value
pIC50: −log10 of the molar value. Positions of bridges follow the written chain, without caps; N, C: chain ends. Non-standard residues stand in square brackets, D forms with d. Residues, ends and D or L forms follow the SMILES beside them. Bip(4'-COOH) = N[C@@H](Cc1ccc(-c2ccc(C(=O)O)cc2)cc1)C(=O)O; Bip(4'-NHAc) = CC(=O)Nc1ccc(-c2ccc(C[C@H](N)C(=O)O)cc2)cc1; Ala(morpholin-4-yl) = N[C@@H](CN1CCOCC1)C(=O)O; Bip = N[C@@H](Cc1ccc(-c2ccccc2)cc1)C(=O)O; Phe(4-NH2) = Nc1ccc(C[C@H](N)C(=O)O)cc1; 2Pal = N[C@@H](Cc1ccccn1)C(=O)O; 3Pal = N[C@@H](Cc1cccnc1)C(=O)O; Chg = N[C@H](C(=O)O)C1CCCCC1; Aze = O=C(O)[C@@H]1CCN1; Sar = CNCC(=O)O
// values below are reported pIC50

[
  {
    "compound": "CC(C)C[C@@H]1NC(=O)[C@H](Cc2ccccc2)NC(=O)[C@H](C(C)C)NC(=O)[C@@H]2CCCN2C(=O)[C@H](C(C)C)NC(=O)[C@@H](CCCNC(=N)N)NC(=O)[C@H](CC(=O)O)NC(=O)[C@H](Cc2ccccc2)NC(=O)CN(C)C(=O)[C@H](Cc2ccc(-c3ccccc3)cc2)NC(=O)[C@H](Cc2ccc(-c3ccc(C(=O)O)cc3)cc2)NC(=O)[C@H](CN2CCOCC2)NC(=O)CSC[C@@H](C(=O)NCC(N)=O)NC1=O [Example 216] ({CH2CO}-[Ala(morpholin-4-yl)][Bip(4'-COOH)][Bip][Sar]FD[dR]VPVFLCG-NH2; thioether N-13)",
    "pIC50": "5.70 to 6.70"
  },
  {
    "compound": "CC(C)C[C@@H]1NC(=O)[C@H](Cc2ccc(O)cc2)NC(=O)[C@H](C(C)C)NC(=O)[C@@H]2CCCN2C(=O)[C@H](Cc2ccc(N)cc2)NC(=O)[C@H](CCCNC(=N)N)NC(=O)[C@H](CC(=O)O)NC(=O)[C@@H]2CCCN2C(=O)CN(C)C(=O)[C@H](Cc2ccc(-c3ccccc3)cc2)NC(=O)[C@H](Cc2ccc(-c3ccccc3)cc2)NC(=O)[C@H](CN2CCOCC2)NC(=O)CSC[C@@H](C(=O)NCC(N)=O)NC1=O [Example 113] ({CH2CO}-[Ala(morpholin-4-yl)][Bip][Bip][Sar]PDR[Phe(4-NH2)]PVYLCG-NH2; thioether N-13)",
    "pIC50": "5.70 to 6.70"
  },
  {
    "compound": "CC(=O)Nc1ccc(-c2ccc(C[C@@H]3NC(=O)[C@H](Cc4ccccc4)NC(=O)CSC[C@@H](C(=O)NCC(N)=O)NC(=O)[C@H](CC(C)C)NC(=O)[C@H](CCCNC(=N)N)NC(=O)[C@H](C(C)C)NC(=O)[C@@H]4CCCN4C(=O)[C@H](C(C)C)NC(=O)[C@H](CCCNC(=N)N)NC(=O)[C@H](CC(=O)O)NC(=O)[C@@H]4CCCN4C(=O)CN(C)C(=O)[C@H](Cc4ccc(-c5ccccc5)cc4)NC3=O)cc2)cc1 [Example 38] ({CH2CO}-F[Bip(4'-NHAc)][Bip][Sar]PDRVPVRLCG-NH2; thioether N-13)",
    "pIC50": "5.70 to 6.70"
  },
  {
    "compound": "CC(C)C[C@@H]1NC(=O)[C@H](CCCNC(=N)N)NC(=O)[C@H](C(C)C)NC(=O)[C@@H]2CCCN2C(=O)[C@H](Cc2cccnc2)NC(=O)[C@@H](CCCNC(=N)N)NC(=O)[C@H](CC(=O)O)NC(=O)[C@H](Cc2ccc(O)cc2)NC(=O)CN(C)C(=O)[C@H](Cc2ccc(-c3ccccc3)cc2)NC(=O)[C@H](Cc2ccc(-c3ccccc3)cc2)NC(=O)[C@H](CN2CCOCC2)NC(=O)CSC[C@@H](C(=O)NCC(N)=O)NC1=O [Example 117] ({CH2CO}-[Ala(morpholin-4-yl)][Bip][Bip][Sar]YD[dR][3Pal]PVRLCG-NH2; thioether N-13)",
    "pIC50": "5.70 to 6.70"
  },
  {
    "compound": "CC(=O)Nc1ccc(-c2ccc(C[C@@H]3NC(=O)[C@H](Cc4ccc(-c5ccccc5)cc4)NC(=O)[C@H](CN4CCOCC4)NC(=O)CSC[C@@H](C(=O)NCC(N)=O)NC(=O)[C@H](CC(C)C)NC(=O)[C@H](Cc4ccc(O)cc4)NC(=O)[C@H](C4CCCCC4)NC(=O)[C@@H]4CCCN4C(=O)[C@H](C(C)C)NC(=O)[C@H](CCCNC(=N)N)NC(=O)[C@H](CC(=O)O)NC(=O)[C@@H]4CCCN4C(=O)CN(C)C3=O)cc2)cc1 [Example 210] ({CH2CO}-[Ala(morpholin-4-yl)][Bip][Bip(4'-NHAc)][Sar]PDRVP[Chg]YLCG-NH2; thioether N-13)",
    "pIC50": "> 7.30"
  },
  {
    "compound": "CC(C)C[C@@H]1NC(=O)[C@H](CCCNC(=N)N)NC(=O)[C@H](C2CCCCC2)NC(=O)[C@@H]2CCCN2C(=O)[C@H](C(C)C)NC(=O)[C@@H](CCCNC(=N)N)NC(=O)[C@H](CC(=O)O)NC(=O)[C@H](Cc2ccccn2)NC(=O)CN(C)C(=O)[C@H](Cc2ccc(-c3ccccc3)cc2)NC(=O)[C@H](Cc2ccc(-c3ccccc3)cc2)NC(=O)[C@H](CN2CCOCC2)NC(=O)CSC[C@@H](C(=O)NCC(N)=O)NC1=O [Example 204] ({CH2CO}-[Ala(morpholin-4-yl)][Bip][Bip][Sar][2Pal]D[dR]VP[Chg]RLCG-NH2; thioether N-13)",
    "pIC50": "6.70 to 7.30"
  },
  {
    "compound": "CC(C)C[C@@H]1NC(=O)[C@H](CCCNC(=N)N)NC(=O)[C@H](C(C)C)NC(=O)[C@@H]2CCCN2C(=O)[C@H](Cc2cccnc2)NC(=O)[C@H](CCCNC(=N)N)NC(=O)[C@H](CC(=O)O)NC(=O)[C@H](Cc2ccc(O)cc2)NC(=O)CN(C)C(=O)[C@H](Cc2ccc(-c3ccccc3)cc2)NC(=O)[C@H](Cc2ccc(-c3ccccc3)cc2)NC(=O)[C@H](CN2CCOCC2)NC(=O)CSC[C@@H](C(=O)NCC(N)=O)NC1=O [Example 114] ({CH2CO}-[Ala(morpholin-4-yl)][Bip][Bip][Sar]YDR[3Pal]PVRLCG-NH2; thioether N-13)",
    "pIC50": "5.70 to 6.70"
  },
  {
    "compound": "CC(C)C[C@@H]1NC(=O)[C@H](CCCNC(=N)N)NC(=O)[C@H](C(C)C)NC(=O)[C@@H]2CCN2C(=O)[C@H](C(C)C)NC(=O)[C@H](CCCNC(=N)N)NC(=O)[C@H](CC(=O)O)NC(=O)[C@@H]2CCCN2C(=O)CN(C)C(=O)[C@H](Cc2ccc(-c3ccccc3)cc2)NC(=O)[C@H](Cc2ccc(-c3ccccc3)cc2)NC(=O)[C@H](Cc2ccccc2)NC(=O)CSC[C@@H](C(=O)NCC(N)=O)NC1=O [Example 42] ({CH2CO}-F[Bip][Bip][Sar]PDRV[Aze]VRLCG-NH2; thioether N-13)",
    "pIC50": "5.70 to 6.70"
  }
]
